# systemTested: T1, L-selectin (LS-Rg) (Homo sapiens, UniProt P14151 P14151:39-332)
# T1 chain: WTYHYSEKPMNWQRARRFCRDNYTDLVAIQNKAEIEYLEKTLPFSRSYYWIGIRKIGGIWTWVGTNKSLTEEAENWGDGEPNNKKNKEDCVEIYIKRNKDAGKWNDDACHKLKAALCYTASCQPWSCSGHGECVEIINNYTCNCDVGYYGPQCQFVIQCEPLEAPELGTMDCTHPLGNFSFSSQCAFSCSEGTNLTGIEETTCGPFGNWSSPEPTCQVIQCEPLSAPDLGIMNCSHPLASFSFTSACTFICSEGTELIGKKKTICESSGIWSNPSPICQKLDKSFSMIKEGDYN
# protocolText: filter; 4 C, HSMC; 14.9 nM at room temp
# testSettings: tags: human IgG2 Fc fusion (provided by A. Varki); label: 32P; hairpin
observationType: pKd
// scale note: pKd = -log10(conc_M); give the bare number

Sample F13.32 (ssRNA, 2'-NH2 all C and U) RNA: GGGAGGACGAUGCGGCGCGUAUGUGUGAAAGCGUGUGCACGGAGGCGUCUACAAUCAGACGACUCGCCCGA — what was its pKd?
7.80
